Provenance of the data: patent US20140154255A1

- systemTested: T1, human VEGF-A residues 27-191 of Accession #AAV38412 (human, UniProt P15692 27-191)
- T1 construct: range 27-191
- T1 sequence (P15692 other isoform, or with tags, fused parts or gaps limits assumed): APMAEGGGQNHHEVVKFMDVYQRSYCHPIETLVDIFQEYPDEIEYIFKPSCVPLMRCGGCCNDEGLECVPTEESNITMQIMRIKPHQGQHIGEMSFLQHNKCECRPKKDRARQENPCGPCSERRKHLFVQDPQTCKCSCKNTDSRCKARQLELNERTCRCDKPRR
- experimentalProtocol: BIAcore SPR
Form field: kon (one value per entry).
assayMetric: kon

# binder, result
measured = [
    ("H97 A (anti-VEGF IgG) (antibody, V domains shown, copies: 2 + 2) VH: EVQLVESGGGLVQPGGSLRLSCAASGYTFTNYGMNWVRQAPGKGLEWVGWINTYTGEPTYAADFKRRFTFSLDTSKSTAYLQMNSLRAEDTAVYYCAKYPAYYGSSHWYFDVWGQGTLVTVSS VL: DIQMTQSPSSLSASVGDRVTITCSASQDISNYLNWYQQKPGKAPKVLIYFTSSLHSGVPSRFSGSGSGTDFTLTISSLQPEDFATYYCQQYSTVPWTFGQGTKVEIK", "205000 M⁻¹ s⁻¹"),
    ("S100a Q (anti-VEGF IgG) (antibody, V domains shown, copies: 2 + 2) VH: EVQLVESGGGLVQPGGSLRLSCAASGYTFTNYGMNWVRQAPGKGLEWVGWINTYTGEPTYAADFKRRFTFSLDTSKSTAYLQMNSLRAEDTAVYYCAKYPHYYGQSHWYFDVWGQGTLVTVSS VL: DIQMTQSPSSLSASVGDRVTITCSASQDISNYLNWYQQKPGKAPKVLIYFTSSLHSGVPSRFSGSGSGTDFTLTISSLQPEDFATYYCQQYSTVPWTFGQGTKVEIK", "134000 M⁻¹ s⁻¹"),
    ("95 (antibody, human IgG1, V domains shown) VH: EVQLVESGGGLVQPGGSLRLSCAASGYTFTNYGMNWVRQAPGKGLEWVGWINTYTGEPTYAADFKRRFTFSLDTSKSTAYLQMNSLRAEDTAVYYCAKYPDYYGSSHWYFDVWGQGTLVTVSS VL: DIQMTQSPSSLSASVGDRVTITCSASQDISNYLNWYQQKPGKAPKVLIYFTSSLHSGVPSRFSGSGSGTDFTLTISSLQPEDFATYYCQQYSTVPWTFGQGTKVEIKR", "270000 M⁻¹ s⁻¹"),
    ("91 (antibody, human IgG1, V domains shown) VH: EVQLVESGGGLVQPGGSLRLSCAASGYTFTFYGMNWVRQAPGKGLEWVGWINTYTGEPTYAADFKRRFTFSLDTSKSTAYLQMNSLRAEDTAVYYCAKYPHYYGSSHWYFDVWGQGTLVTVSS VL: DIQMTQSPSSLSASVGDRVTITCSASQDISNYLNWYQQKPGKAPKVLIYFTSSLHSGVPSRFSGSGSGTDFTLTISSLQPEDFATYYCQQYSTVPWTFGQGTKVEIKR", "272000 M⁻¹ s⁻¹"),
]
